protocol_text: The compound was tested for acute toxicity when given intraperitoneally in mouse
Type: organism-based
recorded_conditions: in vivo, ip
Labelling: LD50 reported below 90 mg/kg becomes MET; at or above becomes NOT MET.

molecule=CC(=O)/C(=C\c1ccccc1)Oc1ccccc1OCCN(C(C)C)C(C)C class_assignment="NOT MET"
molecule=CCN(CC)CCOc1ccccc1OCC(C)=O class_assignment="NOT MET"
molecule=CCN(CC)CCOc1ccccc1O/C(=C/c1ccccc1)C(=O)c1ccccc1 class_assignment="NOT MET"
molecule="CCN(CC)CCOc1ccccc1OCC(C)O (centres undefined)" class_assignment="NOT MET"
molecule="CCN(CC)CCOc1ccccc1OC(Cc1ccccc1)C(C)O (centres undefined)" class_assignment=MET
molecule=CC(=O)/C(=C\c1ccccc1)Oc1ccccc1OCCN1CCCCC1 class_assignment=MET
molecule="CCN(CC)CCNC(=O)c1ccc(N)cc1 [PROCAINAMIDE]" class_assignment="NOT MET"
molecule=CC(=O)/C(=C\c1ccccc1)Oc1ccccc1OCCN1CCCC1 class_assignment=MET

Each recorded value in this set is attributed to ChEMBL document CHEMBL1123881.
